All values here come from patent US20210380703A1.

Recorded optical density for the following binders
molecular target: human Fc (human); assay: ELISA, negative control

[
  {
    "Binder": "373_F12 (antibody, V domains shown) VH: EVQLLESGGGLVQPGGSLRLSCAASGFTFSSYSMNWVRQAPGKGLEWVSNINYNGGYTGYADSVKGRFTISRDNSKNTLYLQMNSLRAEDTAVYYCARGANWHDTALDYWGQGTLVTVSS VL: DIQMTQSPSSLSASVGDRVTITCRASQSISTYLNWYQQKPGKAPKLVIYAATSRASGVPSRFSGSGSGTDFTLTISSLQPEDFATYYCQQSYETPLTFGGGTKVEIK",
    "optical density / OD": 0.158
  },
  {
    "Binder": "367_C06 (antibody, V domains shown) VH: EVQLLESGGGLVQPGGSLRLSCAASGFTFDSYSMHWVRQAPGKGLEWVASINYNGGYKSYADSVKGRFTISRDNSKNTLYLQMNSLRAEDTAVYYCARAATWHDTHLDYWGQGTLVTVSS VL: DIQMTQSPSSLSASVGDRVTITCRASQSILTYLNWYQQKPGKAPKLVIYAATSLHSGVPSRFSGSGSGTDFTLTISSLQPEDFATYYCQQSYDTPLTFGGGTKVEIK",
    "optical density / OD": 0.29
  }
]
